meta.source: ChEMBL document CHEMBL3351658

# TEST: Cytotoxicity against rhesus monkey LLC-MK2 cells assessed as cell viability at 250 uM after 48 hrs by alamar blue assay
# Type: cell-based, Macaca mulatta
# TEST_SETTINGS: LLC-MK2 cells, read-out: Activity
PROPERTY_LABEL: viability at 48 h, 250 µM (%)
# number only, unit % dropped from output

Lab note: `CC(C)C(=O)N[C@H]1[C@H]([C@H](O)[C@H](O)CO)OC(C(=O)O)=C[C@@H]1O` gave viability at 48 h, 250 µM of 93

====

# TEST: Cytotoxicity against rhesus monkey LLC-MK2 cells assessed as cell viability at 250 uM after 48 hrs by MTT assay
# Type: cell-based, Macaca mulatta
# TEST_SETTINGS: LLC-MK2 cells, read-out: Activity
PROPERTY_LABEL: viability at 48 h, 250 µM
Could you write the number and then its unit?

Lab note: `CC(C)C(=O)N[C@H]1[C@H]([C@H](O)[C@H](O)CO)OC(C(=O)O)=C[C@@H]1O` gave viability at 48 h, 250 µM of 93%
